meta.source: paper PMC3472114

SYSTEM_NAME: galactosamine-6-sulfatase (GALNS) (Homo sapiens)
Sequence (P34059 27-522): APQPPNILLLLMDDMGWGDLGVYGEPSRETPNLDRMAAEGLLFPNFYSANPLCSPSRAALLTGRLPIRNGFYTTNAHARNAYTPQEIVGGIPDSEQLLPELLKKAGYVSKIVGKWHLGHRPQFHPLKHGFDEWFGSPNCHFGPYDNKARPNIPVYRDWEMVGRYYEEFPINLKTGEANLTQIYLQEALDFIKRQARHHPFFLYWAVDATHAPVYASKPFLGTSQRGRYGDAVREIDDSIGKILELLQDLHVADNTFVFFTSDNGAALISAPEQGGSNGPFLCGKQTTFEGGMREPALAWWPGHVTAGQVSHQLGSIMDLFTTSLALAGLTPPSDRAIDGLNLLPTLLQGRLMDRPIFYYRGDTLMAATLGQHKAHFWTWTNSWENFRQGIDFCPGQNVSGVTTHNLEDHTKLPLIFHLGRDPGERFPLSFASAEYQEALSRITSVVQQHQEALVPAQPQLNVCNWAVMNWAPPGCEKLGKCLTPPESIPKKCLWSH
REPORTED_METRIC: Ki (µM)
Your answer should be a plain number; it is taken to be in µM.

Q) Which Ki value belongs to O=S(=O)(O)O [sulfate] ?
A) 570
